- assay_method_text: Apparent permeability across basolateral to apical side in dog MDCK-MDR1 cells incubated for 60 mins by LC-MS/MS analysis
- Type: ADME, cell-based, Canis lupus familiaris
metric_name: Papp B→A at 1 h

Cl.Cl.O=C(COc1ccc(-c2nc3cc(C4=NCCN4)ccc3[nH]2)cc1)N1CCOCC1 = 1.53 ×10⁻⁶ cm/s
CCN(CC)CCOc1ccc(-c2nc3cc(C4=NCCN4)ccc3[nH]2)cc1OC.Cl.Cl = 0.5 ×10⁻⁶ cm/s
COc1cc(-c2nc3cc(C4=NCCN4)ccc3[nH]2)ccc1OCc1cn(CCN2CCOCC2)nn1.Cl.Cl = 0.89 ×10⁻⁶ cm/s
CCN(CC)CCOc1ccc(-c2nc3cc(C4=NCCN4)ccc3[nH]2)cc1F.Cl.Cl = 0.49 ×10⁻⁶ cm/s
CCN(CC)CCOc1ccc(-c2nc3cc(C4=NCCN4)ccc3[nH]2)cc1.Cl.Cl = 0.63 ×10⁻⁶ cm/s
Cl.Cl.Fc1cc(-c2nc3cc(C4=NCCN4)ccc3[nH]2)ccc1OCc1cn(CCN2CCOCC2)nn1 = 0.8 ×10⁻⁶ cm/s
COc1cc(-c2nc3cc(C4=NCCN4)ccc3[nH]2)ccc1OCc1cn(Cc2ccccc2)nn1.Cl = < 0.1 ×10⁻⁶ cm/s
Cl.Cl.O=C(COc1ccc(-c2nc3cc(C4=NCCN4)ccc3[nH]2)cc1F)N1CCOCC1 = 0.99 ×10⁻⁶ cm/s
Cl.O=C(COc1ccc(-c2nc3cc(C4=NCCN4)ccc3[nH]2)cc1)c1ccccc1 = 0.11 ×10⁻⁶ cm/s
Cl.c1cc(-c2nc3cc(C4=NCCN4)ccc3[nH]2)ccc1OCc1c[nH]nn1 = 0.84 ×10⁻⁶ cm/s
COc1cc(-c2nc3cc(C4=NCCN4)ccc3[nH]2)ccc1OCCN1CCOCC1.Cl.Cl = 0.67 ×10⁻⁶ cm/s
Cl.Fc1cc(-c2nc3cc(C4=NCCN4)ccc3[nH]2)ccc1OCc1cn(Cc2ccccc2)nn1 = 0.09 ×10⁻⁶ cm/s
Cl.Cl.Fc1cc(-c2nc3cc(C4=NCCN4)ccc3[nH]2)ccc1OCCN1CCOCC1 = 0.84 ×10⁻⁶ cm/s
Cl.Fc1cc(-c2nc3cc(C4=NCCN4)ccc3[nH]2)ccc1OCc1ccccn1 = 0.2 ×10⁻⁶ cm/s
Cl.c1ccc(COc2ccc(-c3nc4cc(C5=NCCN5)ccc4[nH]3)cc2)nc1 = 0.51 ×10⁻⁶ cm/s

---

- assay_method_text: Efflux ratio of apparent permeability from basolateral to apical side over apical to basolateral side in MDCK-MDR1 cells
- Type: ADME, cell-based, Canis lupus familiaris
- assay_setup: dog
# label = 1 if efflux ratio >= 2 else -1

COc1cc(-c2nc3cc(C4=NCCN4)ccc3[nH]2)ccc1OCc1ccccn1.Cl = 1
COc1cc(-c2nc3cc(C4=NCCN4)ccc3[nH]2)ccc1OCCN1CCOCC1.Cl.Cl = -1
CCN(CC)CCOc1ccc(-c2nc3cc(C4=NCCN4)ccc3[nH]2)cc1.Cl.Cl = 1
COc1cc(-c2nc3cc(C4=NCCN4)ccc3[nH]2)ccc1OCC(=O)N1CCOCC1.Cl.Cl = -1
COc1cc(-c2nc3cc(C4=NCCN4)ccc3[nH]2)ccc1OCc1cn(CCN2CCOCC2)nn1.Cl.Cl = -1
Cl.Cl.Fc1cc(-c2nc3cc(C4=NCCN4)ccc3[nH]2)ccc1OCc1cn(CCN2CCOCC2)nn1 = -1
Cl.Fc1cc(-c2nc3cc(C4=NCCN4)ccc3[nH]2)ccc1OCc1ccccn1 = 1
CCN(CC)CCOc1ccc(-c2nc3cc(C4=NCCN4)ccc3[nH]2)cc1OC.Cl.Cl = 1
Cl.c1cc(-c2nc3cc(C4=NCCN4)ccc3[nH]2)ccc1OCc1c[nH]nn1 = -1

---

- assay_method_text: Apparent permeability across apical to basolateral side in dog MDCK-MDR1 cells incubated for 60 mins by LC-MS/MS analysis
- Format: ADME, cell-based, Canis lupus familiaris
Sorting guide: entries reporting Papp A→B at 1 h beneath 0.5 ×10⁻⁶ cm/s go in the Satisfied pile, the rest go in the Not satisfied pile.

Cl.Cl.c1cc(-c2nc3cc(C4=NCCN4)ccc3[nH]2)ccc1OCc1cn(CCN2CCOCC2)nn1 = Not satisfied
COc1cc(-c2nc3cc(C4=NCCN4)ccc3[nH]2)ccc1OCCN1CCOCC1.Cl.Cl = Not satisfied
Cl.Fc1cc(-c2nc3cc(C4=NCCN4)ccc3[nH]2)ccc1OCc1ccccn1 = Satisfied
COc1cc(-c2nc3cc(C4=NCCN4)ccc3[nH]2)ccc1OCC(=O)N1CCOCC1.Cl.Cl = Not satisfied
Cl.Cl.O=C(COc1ccc(-c2nc3cc(C4=NCCN4)ccc3[nH]2)cc1F)N1CCOCC1 = Not satisfied
COc1cc(-c2nc3cc(C4=NCCN4)ccc3[nH]2)ccc1OCC(=O)c1ccccc1.Cl = Satisfied
CCN(CC)CCOc1ccc(-c2nc3cc(C4=NCCN4)ccc3[nH]2)cc1.Cl.Cl = Satisfied
CCN(CC)CCOc1ccc(-c2nc3cc(C4=NCCN4)ccc3[nH]2)cc1F.Cl.Cl = Satisfied
Cl.O=C(COc1ccc(-c2nc3cc(C4=NCCN4)ccc3[nH]2)cc1)c1ccccc1 = Satisfied
COc1cc(-c2nc3cc(C4=NCCN4)ccc3[nH]2)ccc1OCc1ccccn1.Cl = Satisfied
Cl.Cl.O=C(COc1ccc(-c2nc3cc(C4=NCCN4)ccc3[nH]2)cc1)N1CCOCC1 = Not satisfied
Cl.O=C(COc1ccc(-c2nc3cc(C4=NCCN4)ccc3[nH]2)cc1F)c1ccccc1 = Satisfied
COc1cc(-c2nc3cc(C4=NCCN4)ccc3[nH]2)ccc1OCc1cn(Cc2ccccc2)nn1.Cl = Satisfied
Cl.c1ccc(COc2ccc(-c3nc4cc(C5=NCCN5)ccc4[nH]3)cc2)nc1 = Satisfied
CCN(CC)CCOc1ccc(-c2nc3cc(C4=NCCN4)ccc3[nH]2)cc1OC.Cl.Cl = Satisfied
COc1cc(-c2nc3cc(C4=NCCN4)ccc3[nH]2)ccc1OCc1cn(CCN2CCOCC2)nn1.Cl.Cl = Satisfied
Cl.c1cc(-c2nc3cc(C4=NCCN4)ccc3[nH]2)ccc1OCc1c[nH]nn1 = Satisfied
Cl.Fc1cc(-c2nc3cc(C4=NCCN4)ccc3[nH]2)ccc1OCc1cn(Cc2ccccc2)nn1 = Satisfied

---

- assay_method_text: Efflux ratio of apparent permeability from basolateral to apical side over apical to basolateral side in MDCK-MDR1 cells
- Format: ADME, cell-based, Canis lupus familiaris
- assay_setup: dog
metric_name: efflux ratio

Cl.Cl.O=C(COc1ccc(-c2nc3cc(C4=NCCN4)ccc3[nH]2)cc1F)N1CCOCC1 = 1.16
Cl.Cl.c1cc(-c2nc3cc(C4=NCCN4)ccc3[nH]2)ccc1OCc1cn(CCN2CCOCC2)nn1 = 1.09
Cl.c1cc(-c2nc3cc(C4=NCCN4)ccc3[nH]2)ccc1OCCN1CCOCC1 = 1.4
CCN(CC)CCOc1ccc(-c2nc3cc(C4=NCCN4)ccc3[nH]2)cc1F.Cl.Cl = 2.92
Cl.Cl.O=C(COc1ccc(-c2nc3cc(C4=NCCN4)ccc3[nH]2)cc1)N1CCOCC1 = 1.44
Cl.Cl.Fc1cc(-c2nc3cc(C4=NCCN4)ccc3[nH]2)ccc1OCCN1CCOCC1 = 1.7
Cl.c1ccc(COc2ccc(-c3nc4cc(C5=NCCN5)ccc4[nH]3)cc2)nc1 = 7.82

---

- System: Trypanosoma brucei brucei
- assay_method_text: Antitrypanosomal activity against bloodstream form of Trypanosoma brucei brucei 221 assessed as parasite growth inhibition incubated for 48 hrs by resazurin staining based assay
- Type: functional, organism-based
- assay_setup: Trypanosoma brucei, 221, 48 h
pIC50: −log10 of the molar value.
metric_name: pIC50

CCN(CC)CCOc1ccc(-c2nc3cc(C4=NCCN4)ccc3[nH]2)cc1F.Cl.Cl = 5.44
CCN(CC)CCOc1ccc(-c2nc3cc(C4=NCCN4)ccc3[nH]2)cc1OC.Cl.Cl = 6.15
CCN(CC)CCOc1ccc(-c2nc3cc(C4=NCCN4)ccc3[nH]2)cc1.Cl.Cl = 6.33

---

- assay_method_text: Apparent permeability across basolateral to apical side in dog MDCK-MDR1 cells incubated for 60 mins by LC-MS/MS analysis
- Type: ADME, cell-based, Canis lupus familiaris
Recorded Papp B→A at 1 h, one value per entry.
metric_name: Papp B→A at 1 h (×10⁻⁶ cm/s)

Cl.c1cc(-c2nc3cc(C4=NCCN4)ccc3[nH]2)ccc1OCCN1CCOCC1 = 0.69
Cl.Cl.c1cc(-c2nc3cc(C4=NCCN4)ccc3[nH]2)ccc1OCc1cn(CCN2CCOCC2)nn1 = 1.18
COc1cc(-c2nc3cc(C4=NCCN4)ccc3[nH]2)ccc1OCc1ccccn1.Cl = 0.52
COc1cc(-c2nc3cc(C4=NCCN4)ccc3[nH]2)ccc1OCC(=O)N1CCOCC1.Cl.Cl = 1.38

---

- assay_method_text: Apparent permeability across apical to basolateral side in dog MDCK-MDR1 cells incubated for 60 mins by LC-MS/MS analysis
- Assay type: ADME, cell-based, Canis lupus familiaris
metric_name: Papp A→B at 1 h (×10⁻⁶ cm/s)

Cl.Cl.Fc1cc(-c2nc3cc(C4=NCCN4)ccc3[nH]2)ccc1OCc1cn(CCN2CCOCC2)nn1 = 0.49
Cl.c1cc(-c2nc3cc(C4=NCCN4)ccc3[nH]2)ccc1OCCN1CCOCC1 = 0.49
Cl.Cl.Fc1cc(-c2nc3cc(C4=NCCN4)ccc3[nH]2)ccc1OCCN1CCOCC1 = 0.49
